Consider the following compounds and their measured EC50 readings.
target: STING (Stimulator of Interferon Genes) (Homo sapiens, UniProt Q86WV6, G230A/H232R/R293Q/R71H); construct: host or cells: THP-1-Lucia ISG cells (human monocytic line); assay: ISG-LUC activation assay (ISRE-Luciferase assay in THP-1 Lucia ISG reporter cells); format: cell-based; details: THP-1 Lucia ISG cells, 24 hours, luciferase reporter; read-out: ISG-LUC activation assay (EC50)
Sequence (Q86WV6 whole entry R71H/G230A/H232R/R293Q): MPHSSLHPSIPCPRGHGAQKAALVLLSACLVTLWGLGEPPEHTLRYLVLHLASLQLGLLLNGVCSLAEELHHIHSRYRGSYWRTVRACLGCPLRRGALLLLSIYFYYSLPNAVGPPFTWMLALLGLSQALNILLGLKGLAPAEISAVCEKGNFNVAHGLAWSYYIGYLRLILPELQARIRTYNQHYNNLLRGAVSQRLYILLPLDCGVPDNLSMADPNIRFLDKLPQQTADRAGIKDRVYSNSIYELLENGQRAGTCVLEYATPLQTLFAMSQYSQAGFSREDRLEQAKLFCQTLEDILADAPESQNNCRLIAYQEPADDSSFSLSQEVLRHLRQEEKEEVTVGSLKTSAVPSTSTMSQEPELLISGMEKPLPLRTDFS

>  <smiles data>
Nc1cc(F)c(F)cc1NC(=O)c1ccc(-n2ccnc2)nn1

>  <unit of measurement>
µM

>  <value modifier>
>

>  <EC50>
50

$$$$
>  <smiles data>
COC(=O)c1cc(O)ccc1NC(=O)c1ccc(-n2ccnc2)nn1

>  <unit of measurement>
µM

>  <value modifier>
=

>  <EC50>
8.95

$$$$
>  <smiles data>
CCOC(=O)C1=C(NC(=O)c2ccc(-n3ccnc3)nn2)CCC(F)(F)C1

>  <unit of measurement>
µM

>  <value modifier>
=

>  <EC50>
3.48

$$$$
>  <smiles data>
CCc1ccc(NC(=O)c2ccc(-n3ccnc3)nn2)c(C(=O)OC)c1

>  <unit of measurement>
µM

>  <value modifier>
=

>  <EC50>
0.418

$$$$
>  <smiles data>
Cc1c(F)ccc2nc(-c3ccc(-n4ccnc4)nn3)oc(=O)c12

>  <unit of measurement>
µM

>  <value modifier>
=

>  <EC50>
4.17

$$$$
>  <smiles data>
COC(=O)c1cc(Cl)c(C)nc1NC(=O)c1ccc(-n2ccnc2)nn1

>  <unit of measurement>
µM

>  <value modifier>
=

>  <EC50>
0.282

$$$$
>  <smiles data>
CC(C)OC(=O)c1ccccc1NC(=O)c1ccc(-n2ccnc2)nn1

>  <unit of measurement>
µM

>  <value modifier>
=

>  <EC50>
1.7

$$$$
>  <smiles data>
COC(=O)c1cc(OC(F)(F)F)c(F)cc1NC(=O)c1ccc(-n2ccnc2)nn1

>  <unit of measurement>
µM

>  <value modifier>
=

>  <EC50>
0.573

$$$$
>  <smiles data>
CCN(CC)CC(C)(C)NC(=O)c1cc(F)c(F)cc1NC(=O)c1ccc(-n2ccnc2)nn1

>  <unit of measurement>
µM

>  <value modifier>
=

>  <EC50>
16.6

$$$$
